Settings: buffer; pH 7.4; 200.0 µM
Classification scheme (solubility kinetic): A (below 10 µg/mL), B (10 µg/mL to below 30 µg/mL), C (30 µg/mL or more)

                                    molecule  answer_label
 0          Cc1cccc(NC(=O)COC(=O)c2ccccn2)c1             C
 1  COc1ccc(CN(C)CC(=O)Nc2ccccc2C(=O)NC2CC2)cc1F             C
 2         COc1ccc(CCNC(=O)c2csc3c2CCCC3)cc1             A
 3          CCOC(=O)/C(C#N)=C/Nc1ccsc1C(C)=O             A
 4    CC(=Nc1ccccc1N)c1c(O)n(C)c(=O)[nH]c1=O             C
 5       CCOc1ccc(OCc2ccc(C(=O)NC(C)C)o2)cc1             B
 6  CC(O)c1nc2ccccc2n1C(C)c1ccccc1 (stereo not given)             C
 7           COC(=O)Cc1nc(NC(=O)c2cccs2)sc1C             C
 8                  CSc1ccccc1NC(=S)NC1CCCC1             C
 9  O=C(CNC(=O)c1ccccc1)NCC(=O)OCC(=O)c1ccccc1Cl             C
10         CCc1ccc(NS(=O)(=O)c2c(C)noc2C)cc1             C
11  CC(=O)Nc1cccc(OCCCNC(=O)c2ccc(C(C)(C)C)cc2)c1             B
12    CCC(=O)c1ccc(OCC(=O)NC2(C#N)CCCCC2)cc1             C
13     Cn1cc(C(=O)OCC(=O)Nc2ccccc2)c2ccccc21             A
14           O=C(Nc1ccccc1-c1ccccc1)c1ccccc1             C
15  O=[N+]([O-])c1ccccc1S(=O)(=O)N1CCCc2ccccc21             B
16                    Nc1nc2c(ccc3ccccc32)s1             B
17  O=C(COC(=O)CCc1ccc(S(=O)(=O)N2CCOCC2)cc1)Nc1ccccc1[N+](=O)[O-]             B
18  CC(C)(C)C(=O)Nc1ccccc1-c1nc2ccccc2[nH]c1=O             C
19  Cc1cccc(C)c1NC(=O)C1CSC2(C)CCC(=O)N12 (stereo not given)             C
20    CCN(CC)c1ccc(NC(=O)Nc2cccc3ccccc23)cc1             A
21         CC(C)c1nnc(NC(=O)CCC(=O)NC2CC2)s1             C
22      COc1ccc(S(=O)(=O)n2cnc3ccccc32)cc1OC             C
23        COc1ccccc1CNC(=O)Cc1ccc(OC)c(OC)c1             C

###

Conditions: buffer; pH 7.4; 200.0 µM
Reported log10 solubility kinetic values for the following molecules.
QUANTITY NAME: log10 solubility kinetic (log10 of the value in µg/mL)

>>> print(df.to_string())
                                   molecule             quantity_name  result_value
0              CC(C)C(=O)Nc1ccccc1Cc1ccccc1  log10 solubility kinetic          1.03
1      Nc1nc(-c2ccc3c(c2)CCCC3)c(CC(=O)O)s1  log10 solubility kinetic          1.63
2   COC(=O)c1ccccc1NC(=O)CSc1nc2ncccc2[nH]1  log10 solubility kinetic          0.94
3  O=C(CSc1ncccn1)NC1CCCc2ccccc21 (configuration not stated)  log10 solubility kinetic          1.63
4  CN(c1ccccc1)S(=O)(=O)c1ccc2[nH]c(=O)[nH]c2c1  log10 solubility kinetic          1.22
5  COc1ccc(C(=O)N2CCCC(Nc3ccc(C)c(C)c3)C2)cc1 (configuration not stated)  log10 solubility kinetic          1.61
6  Cc1cc(=O)oc2cc(NC(=O)c3ccc(OC(F)F)cc3)ccc12  log10 solubility kinetic          0.00
7          CC1=CC(C)(C)NC(=S)N1c1ccc(C)cc1C  log10 solubility kinetic          0.32
8    CN(C)/C=N/c1ncc(C(=O)c2ccc(Cl)cc2Cl)s1  log10 solubility kinetic          1.62
9           Cc1cccnc1Nc1nc(-c2ccc(F)cc2)cs1  log10 solubility kinetic         -0.52

###

Details: buffer; pH 7.4; 200.0 µM
QUANTITY NAME: solubility kinetic (µg/mL)

In [3]: df
Out[3]:
                                    compound       quantity_name  value_modifier  result_value
 0    COc1ccc(CCNS(=O)(=O)c2ccc(Cl)cc2)cc1OC  solubility kinetic               >          53.4
 1  Cc1ccc(C)c(NC(=O)Cn2cnc3c(oc4ccccc43)c2=O)c1  solubility kinetic               <           0.2
 2     O=S(=O)(Nc1nc2ccccc2nc1Cl)c1ccc(F)cc1  solubility kinetic               >          50.7
 3   O=C(CSc1cccc[n+]1[O-])Nc1ccccc1C(F)(F)F  solubility kinetic               >          49.2
 4  C/C=C/C=C/C(=O)OC(C)C(=O)Nc1cc([N+](=O)[O-])ccc1OC (centres undefined)  solubility kinetic               =            18
 5         Cc1ccccc1/C=C1\C(=O)Nc2ccc(F)cc21  solubility kinetic               =           0.9
 6  Cc1ccc(C23CC4CC(CC(C(=O)NC(C)C)(C4)C2)C3)cc1  solubility kinetic               <           0.7
 7  O=C(OCc1nc2ccccc2s1)c1ccc([N+](=O)[O-])o1  solubility kinetic               =           1.1
 8          Cc1ccc(NCC(=O)N/N=C/c2ccncc2)cc1  solubility kinetic               >          40.2
 9  CC(=O)C1=C(C)NC(=O)NC1c1ccc2c(c1)OCO2 (centres undefined)  solubility kinetic               >          41.1
10                   Cn1ccnc1C(=O)c1ccccc1Cl  solubility kinetic               >          33.1
11  CNc1nc(-c2ccc3c(c2)CCN3C(=O)CC(C)(C)C)c(C)s1  solubility kinetic               =          17.5
12  COc1ccc(/C=C/C(=O)OCC(=O)Nc2ncc(Cl)cc2Cl)cc1  solubility kinetic               =           8.1
13      O=C(Nc1ccc2c(c1)OCCO2)c1ccc(Cl)cc1Cl  solubility kinetic               =           3.5
14  Nc1nc(Nc2cccc(Cl)c2)nc(NCCO)c1[N+](=O)[O-]  solubility kinetic               =           6.5
15    Cc1cc(C)cc(CN2C(=O)NC3(CCCCCC3)C2=O)c1  solubility kinetic               =          18.1
16  O=C(NCc1cccc(C(F)(F)F)c1)c1ccc2c(c1)OCO2  solubility kinetic               =          34.8
17  COc1ccc(CCNC(=O)c2cc(=O)n(C)c(=O)n2C)cc1OC  solubility kinetic               =          48.7
18  Cc1nc2sc(C(=O)Nc3ccccc3)c(N)c2c(C)c1[N+](=O)[O-]  solubility kinetic               =           0.8
19  Cc1ccccc1-n1c(=O)n(Cc2ccco2)c(=O)c2[nH]cnc21  solubility kinetic               >          48.3
20         CC(=O)Nc1cccc(NC(=O)c2csc(C)c2)c1  solubility kinetic               >          41.2
21  CCOc1ccc2nc(SCC(=O)Nc3cc(C)on3)c(C)cc2c1  solubility kinetic               <           0.3
22        CCn1cc(S(=O)(=O)N2CCc3ccccc3C2)cn1  solubility kinetic               >          43.7
23  Cc1ccc(F)cc1NC(=O)/C=C/c1ccc(S(=O)(=O)N2CCOCC2)cc1  solubility kinetic               =           1.8
